- TARGET: GDP-bound KRAS wild-type protein (Homo sapiens, UniProt P01116)
- Sequence (P01116 1-188 isoform P01116-2): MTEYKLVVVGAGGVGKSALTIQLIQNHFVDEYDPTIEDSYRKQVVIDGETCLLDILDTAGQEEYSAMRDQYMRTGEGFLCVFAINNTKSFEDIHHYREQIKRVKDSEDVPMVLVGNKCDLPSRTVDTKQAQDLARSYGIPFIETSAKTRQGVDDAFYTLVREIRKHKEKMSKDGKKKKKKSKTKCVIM
- ASSAY_TEXT: Binding to KRAS by surface plasmon resonance (SPR), dissociation constant KD
- CONDITIONS: 1:1 binding model
Where a SMILES comes first, the peptide text is derived from it. Bridges are numbered along the chain shown (N, C = ends). [ ]: non-standard residue; d: D form. The star is where a group is joined. hPhe(3-Cl-4-CF3) = N[C@@H](CCc1ccc(C(F)(F)F)c(Cl)c1)C(=O)O; NPrPhe(4-CF3) = CCCN[C@@H](Cc1ccc(C(F)(F)F)cc1)C(=O)O; Morpholine(3S-CO) = O=C(O)[C@@H]1COCCN1; NMeGly(cPent) = CN[C@H](C(=O)O)C1CCCC1; NMeD = CN[C@@H](CC(=O)O)C(=O)O; NMeL = CN[C@@H](CC(C)C)C(=O)O; Morpholide = C1CN(*)CCO1; Ac5c = NC1(C(=O)O)CCCC1; Aze = O=C(O)[C@@H]1CCN1; Sar = CNCC(=O)O
Readings of Kd for the listed compounds
Value expressed in nM; do not type the unit.

Form field Kd, entry "CCCOC[C@H]1C(=O)N[C@@H]([C@@H](C)OCC)C(=O)N2CCC[C@H]2C(=O)N(C)[C@H]2C/C=C\CCN(C2=O)[C@@H](Cc2ccc(C)cc2)C(=O)N(C)CC(=O)N[C@@H](CCc2cc(F)c(C(F)(F)F)c(F)c2)C(=O)N2C[C@H](OCC)C[C@H]2C(=O)NC2(CC(C)(C)C2)C(=O)N(C)[C@@H](C2CCCC2)C(=O)N(C)[C@H](C(=O)N(C)CC)CC(=O)N1C" : 1.4

Form field Kd, entry CCCN1C(=O)CN(C)C(=O)[C@@H]2CCN2C(=O)[C@H]([C@@H](C)CC)NC(=O)[C@H](CC(C)C)N(C)C(=O)C[C@@H](C(=O)N2CCOCC2)N(C)C(=O)[C@H](C2CCCC2)N(C)C(=O)C2(CCCC2)NC(=O)[C@@H]2COCCN2C(=O)[C@H](CCc2ccc(C(F)(F)F)c(Cl)c2)NC(=O)CN(C)C(=O)[C@@H]1Cc1ccc(C(F)(F)F)cc1 [PP0313] ([NMeL]I[Aze][Sar][NPrPhe(4-CF3)][Sar][hPhe(3-Cl-4-CF3)][Morpholine(3S-CO)][Ac5c][NMeGly(cPent)][NMeD]-Morpholide; lactam N-11) : 2.2

###

- TARGET: GDP-bound KRAS wild-type protein (Homo sapiens)
- ASSAY_TEXT: Binding to KRAS by surface plasmon resonance (SPR), dissociation constant KD
- CONDITIONS: Single Cycle Kinetics
Where a SMILES comes first, the peptide text is derived from it. Bridges are numbered along the chain shown (N, C = ends). [ ]: non-standard residue; d: D form. The star is where a group is joined. hPhe(3,5-F2-4-CF3) = N[C@@H](CCc1cc(F)c(C(F)(F)F)c(F)c1)C(=O)O; NPrPhe(4-CF3) = CCCN[C@@H](Cc1ccc(C(F)(F)F)cc1)C(=O)O; NMeGly(cPent) = CN[C@H](C(=O)O)C1CCCC1; NMeD = CN[C@@H](CC(=O)O)C(=O)O; NMeL = CN[C@@H](CC(C)C)C(=O)O; αMeS = C[C@](N)(CO)C(=O)O; Morpholide = C1CN(*)CCO1; Aze = O=C(O)[C@@H]1CCN1; Sar = CNCC(=O)O; Allyl = C=CC*
RECORDED_METRIC: Kd (nM)
Value expressed in nM; do not type the unit.

Some entries whose results are on file:
COMPOUND | Kd [nM]
CCO[C@@H]1C[C@H]2C(=O)NC3(CC(C)(C)C3)C(=O)N(C)[C@@H](C3CCCC3)C(=O)N(C)[C@H](C(=O)N(C)C)CC(=O)N[C@@H](CC3CC3)C(=O)N[C@@H]([C@@H](C)CC)C(=O)N(C)CC(=O)N(C)[C@H]3C/C=C\CCN(C3=O)[C@@H](Cc3ccc(C(F)(F)F)cc3)C(=O)N(C)CC(=O)N[C@@H](CCc3ccc(C(F)(F)F)c(OC)c3)C(=O)N2C1 | 0.2
CCC[C@H]1C(=O)N[C@@H]([C@@H](C)CC)C(=O)N2CCC[C@H]2C(=O)N(C)[C@H]2C/C=C\CCN(C2=O)[C@@H](Cc2ccc(C)cc2)C(=O)N(C)CC(=O)N[C@@H](CCc2cc(F)c(C(F)(F)F)c(F)c2)C(=O)N2CC[C@H](OC)[C@H]2C(=O)N(C)C2(CCC2)C(=O)N(C)[C@@H](C2CCCC2)C(=O)N(C)[C@H](C(=O)N(C)C)CC(=O)N1C | 0.15

Form field Kd, entry C=CCOC[C@]1(C)NC(=O)[C@@H]2CCCN2C(=O)[C@H](CCc2cc(F)c(C(F)(F)F)c(F)c2)NC(=O)CN(C)C(=O)[C@H](Cc2ccc(C(F)(F)F)cc2)N(CCC)C(=O)CN(C)C(=O)[C@@H]2CCN2C(=O)[C@H]([C@@H](C)CC)NC(=O)[C@H](CC(C)C)N(C)C(=O)C[C@@H](C(=O)N2CCOCC2)N(C)C(=O)[C@H](C2CCCC2)N(C)C1=O [PP0780] ([NMeL]I[Aze][Sar][NPrPhe(4-CF3)][Sar][hPhe(3,5-F2-4-CF3)]P[αMeS](Allyl)[NMeGly(cPent)][NMeD]-Morpholide; lactam N-11) : 7.8

Form field Kd, entry "CCO[C@@H]1C[C@H]2C(=O)NC3(CC(C)(C)C3)C(=O)N(C)[C@@H](C3CCCC3)C(=O)N(C)[C@H](C(=O)N(C)CC)CC(=O)N(C)[C@@H]([C@@H](C)OC)C(=O)N[C@@H]([C@@H](C)CC)C(=O)N3CCC[C@H]3C(=O)N(C)[C@H]3C/C=C\CCN(C3=O)[C@@H](Cc3ccc(C(F)(F)F)cc3)C(=O)N(C)CC(=O)N[C@@H](CCc3ccc(C(F)(F)F)c(OC)c3)C(=O)N2C1" : 0.84

Form field Kd, entry "CCC[C@H]1C(=O)N[C@@H]([C@@H](C)CC)C(=O)N2CC[C@H]2C(=O)N(C)[C@H]2C/C(F)=C\CCN(C2=O)[C@@H](Cc2ccc(C(F)(F)F)cc2)C(=O)N(C)CC(=O)N[C@@H](CCc2ccc(C(F)(F)F)c(OC)c2)C(=O)N2C[C@H](OCC)C[C@H]2C(=O)N(C)C2(CCC2)C(=O)N(C)[C@@H](C2CCCC2)C(=O)N(C)[C@H](C(=O)N(C)C)CC(=O)N1C" : 0.11

###

- Test system: human lung cancer strain NCI-H441
- Format: cell-based
*1 amine or outer side, *2 acyl side, *3 side chain or, on linkers, in order; H or OH if unused. Where a SMILES comes first, the peptide text is derived from it. Bridges are numbered along the chain shown (N, C = ends). [ ]: non-standard residue; d: D form. The star is where a group is joined. hPhe(3,5-F2-4-CF3) = N[C@@H](CCc1cc(F)c(C(F)(F)F)c(F)c1)C(=O)O; hPhe(3-Cl-4-CF3) = N[C@@H](CCc1ccc(C(F)(F)F)c(Cl)c1)C(=O)O; X24 = CC(C)CN([C@@H](Cc1ccc(C(F)(F)F)cc1)C(=O)[*:2])[*:1]; NPrPhe(4-CF3) = CCCN[C@@H](Cc1ccc(C(F)(F)F)cc1)C(=O)O; NMeGly(cPent) = CN[C@H](C(=O)O)C1CCCC1; NMeD = CN[C@@H](CC(=O)O)C(=O)O; NMeL = CN[C@@H](CC(C)C)C(=O)O; αMeS = C[C@](N)(CO)C(=O)O; Morpholide = C1CN(*)CCO1; NMeA = CN[C@@H](C)C(=O)O; Ac5c = NC1(C(=O)O)CCCC1; Aze = O=C(O)[C@@H]1CCN1; Sar = CNCC(=O)O; tBu = CC(C)(C)*
Readings of IC50 for the listed compounds
Value expressed in nM; do not type the unit.

Some entries whose results are on file:
COMPOUND | IC50 [nM]
CC[C@H](C)[C@@H]1NC(=O)[C@@H]2CCC/C=C/c3ccc(cc3)C[C@@H](C(=O)N(C)CC(=O)N[C@@H](CCc3ccc(Cl)c(Cl)c3)C(=O)N3CCC[C@H]3C(=O)NC3(CC(C)(C)C3)C(=O)N(C)[C@@H](C3CCCC3)C(=O)N(C)[C@H](C(=O)N(C)CC)CC(=O)N2C)N2CC/C=C\C[C@@H](C2=O)N(C)C(=O)CN(C)C1=O [PP2601] | 8.9
CCC[C@H]1C(=O)N[C@@H]([C@@H](C)CC)C(=O)N(C2CC2)CC(=O)N(C)[C@H]2C/C=C\CCN(C2=O)[C@@H](Cc2ccc(C)cc2)C(=O)N(C)CC(=O)N[C@@H](CCc2cc(C)c(C(F)F)c(Cl)c2)C(=O)N2C[C@H](OCC)C[C@H]2C(=O)NC2(CC(C)(C)C2)C(=O)N(C)[C@@H](C2CCCC2)C(=O)N(C)[C@H](C(=O)N(C)C)CC(=O)N1C [PP2875] | 121
CC[C@H](C)[C@@H]1NC(=O)[C@H](CC(C)C)N(C)C(=O)C[C@@H](C(=O)N2CCOCC2)N(C)C(=O)[C@H](C2CCCC2)N(C)C(=O)C2(CCCC2)NC(=O)[C@@H]2CCCN2C(=O)[C@H](CCc2ccc(C(F)(F)F)c(Cl)c2)NC(=O)CN(C)C(=O)[C@H](Cc2ccc(C(F)(F)F)cc2)N(CC(C)C)C(=O)[C@@H]2CCN2C(=O)[C@H](C)N(C)C1=O [PP0107] ([NMeL]I[NMeA][Aze][X24][Sar][hPhe(3-Cl-4-CF3)]P[Ac5c][NMeGly(cPent)][NMeD]-Morpholide; lactam N-11) | 32.2

Form field IC50, entry CC[C@H](C)[C@@H]1NC(=O)[C@H](CC(C)C)N(C)C(=O)C[C@@H](C(=O)N2CCOCC2)N(C)C(=O)[C@H](C2CCCC2)N(C)C(=O)C2(CCCC2)NC(=O)[C@@H]2CCCN2C(=O)[C@H](CCc2ccc(C(F)(F)F)c(Cl)c2)NC(=O)CN(C)C(=O)[C@H](Cc2ccc(Cl)cc2)N2CCCCC[C@@H](C2=O)N(C)C(=O)CN(C)C1=O [PP0613] : 42.4

Form field IC50, entry CCO[C@@H]1C[C@H]2C(=O)NC3(CCCC3)C(=O)N(C)[C@@H](C3CCCC3)C(=O)N(C)[C@H](C(=O)N(C)C)CC(=O)N(C)[C@@H](CC(C)C)C(=O)N[C@@H]([C@@H](C)CC)C(=O)N(C)CC(=O)N(C)[C@H]3C/C=C\CCN(C3=O)[C@@H](Cc3ccc(C(F)(F)F)cc3)C(=O)N(C)CC(=O)N[C@@H](CCc3cc(F)c(Cl)c(F)c3)C(=O)N2C1 [PP2269] : 20

Form field IC50, entry CCO[C@@H]1C[C@H]2C(=O)NC3(CCC3)C(=O)N(C)[C@@H](C(CC)CC)C(=O)N(C)C(C(C)C)CC(=O)N(C)[C@@H](CC)C(=O)N[C@@H]([C@@H](C)CC)C(=O)N(C)CC(=O)N(C)[C@H]3C/C=C\CCN(C3=O)[C@@H](Cc3ccc(C(F)(F)F)cc3)C(=O)N(C)CC(=O)N[C@@H](CCc3cc(F)c(C(F)(F)F)c(F)c3)C(=O)N2C1 (stereo partly shown) [PP1589] : 86.6

Form field IC50, entry CCC[C@H]1C(=O)N[C@@H]([C@@H](C)CC)C(=O)N(C2CC2)CC(=O)N(C)[C@H]2C/C=C\CCN(C2=O)[C@@H](Cc2ccc(C)cc2)C(=O)N(C)CC(=O)N[C@@H](CCc2ccc(C(F)(F)F)c(OC)c2)C(=O)N2C[C@H](OCC)C[C@H]2C(=O)N(C)C2(CCC2)C(=O)N(C)[C@@H](C2CCCC2)C(=O)N(C)[C@H](C(=O)N2CCCCC2)CC(=O)N1C [PP3096] : 35.8

Form field IC50, entry CCCO[C@@H]1C[C@H]2C(=O)NC3(CC(C)(C)C3)C(=O)N(C)[C@@H](C3CCCC3)C(=O)N(C)[C@H](C(=O)N(C)CC)CC(=O)N(C)[C@H]3CCCc4ccc(cc4)C[C@@H](C(=O)N(C)CC(=O)N[C@@H](CCc4ccc(Cl)c(Cl)c4)C(=O)N2C1)N1CC/C=C\C[C@@H](C1=O)N(C)C(=O)CN(C)C(=O)[C@H]([C@@H](C)CC)NC3=O [PP3089] : 27

Form field IC50, entry CCCN(C)C(=O)[C@@H]1CC(=O)N(C)[C@@H](CC(C)C)C(=O)N[C@@H]([C@@H](C)CC)C(=O)N(C)CC(=O)N(C)[C@H]2C/C=C\CCN(C2=O)[C@@H](Cc2ccc(C(F)(F)F)cc2)C(=O)N(C)CC(=O)N[C@@H](CCc2cc(F)c(C(F)(F)F)c(F)c2)C(=O)N2C[C@H](OCC)C[C@H]2C(=O)NC2(CCC2)C(=O)N(C)[C@@H](C2CCCC2)C(=O)N1C [PP1387] : 15.3

Form field IC50, entry CCCN1C(=O)[C@@H]2CCN2C(=O)CN(C)C(=O)[C@H]([C@@H](C)CC)NC(=O)[C@H](CC(C)C)N(C)C(=O)C[C@@H](C(=O)N2CCOCC2)N(C)C(=O)[C@H](C2CCCC2)N(C)C(=O)[C@](C)(COC(C)(C)C)NC(=O)[C@@H]2CCCN2C(=O)[C@H](CCc2cc(F)c(C(F)(F)F)c(F)c2)NC(=O)CN(C)C(=O)[C@@H]1Cc1ccc(C(F)(F)F)cc1 [PP0800] ([NMeL]I[Sar][Aze][NPrPhe(4-CF3)][Sar][hPhe(3,5-F2-4-CF3)]P[αMeS](tBu)[NMeGly(cPent)][NMeD]-Morpholide; lactam N-11) : 186
